# Test system: PC-3
# Measurement Description: PC-3 cell proliferation assay (WST-1)
# Assay type: cell-based
# Condition Summary: Homo sapiens; inhibitory activity against PC-3 cell proliferation
pIC50: −log10 of the molar value.
Assay Metric: pIC50

# Molecule, Data Value
measured = [
    ("Cc1cn(-c2ccc3c(O)ncnc3c2)c2c1C(=O)CC(C)(C)C2", "> 6.30"),
]

pIC50 reported for this molecule CC1(C)CC(=O)c2c(C(F)(F)F)nn(-c3ccc4c(N)ncnc4c3)c2C1 : 4.30 to 5.30

pIC50 reported for this molecule Cc1cn(-c2cnc3c(N)ncnc3c2)c2c1C(=O)CC(C)(C)C2 : 5.30 to 6.30

pIC50 reported for this molecule Cc1cc2c(n1-c1cnc3c(N)ncnc3c1)CC(C)(C)CC2=O : 4.30 to 5.30

pIC50 reported for this molecule Cc1cn(-c2ccc3c(N)ncnc3c2F)c2c1C(=O)CC(C)(C)C2 : 5.30 to 6.30

pIC50 reported for this molecule Cc1cn(-c2cnc3c(N)nc(N)nc3c2)c2c1C(=O)CC(C)(C)C2 : > 6.30

pIC50 reported for this molecule CC(=O)c1cnc(N)c2ccc(-n3cc(C)c4c3CC(C)(C)CC4=O)cc12 : 5.30 to 6.30

pIC50 reported for this molecule Cc1nn(-c2ccc3c(N)ncc(Br)c3c2)c2c1C(=O)CC(C)(C)C2 : 4.30 to 5.30

pIC50 reported for this molecule Cc1cn(-c2ccc3c(N)ncnc3c2OCCN(C)C)c2c1C(=O)CC(C)(C)C2 : 4.30 to 5.30

pIC50 reported for this molecule CCCCSc1c(-n2cc(C)c3c2CC(C)(C)CC3=O)ccc2c(N)ncnc12 : 5.30 to 6.30

pIC50 reported for this molecule CCCCSc1cc(-n2cc(C)c3c2CC(C)(C)CC3=O)cc2ncnc(N)c12 : 4.30 to 5.30

pIC50 reported for this molecule CC1(C)CC(=O)c2c(C(F)F)nn(-c3ccc4c(N)ncc(C#N)c4c3)c2C1 : 5.30 to 6.30

pIC50 reported for this molecule Cc1cn(-c2ccc3c(C)nc(N)nc3c2)c2c1C(=O)CC(C)(C)C2 : > 6.30

---

# System: HSP-90 (heat shock protein 90)
# Measurement Description: Determination of affinity for HSP-90 (elution from purine affinity column); also: key: +++: very high; ++: high; +: moderate
# Condition Summary: relative binding affinity to HSP-90
Assay Metric: Affinity

Use these answered entries as a reference point.
# Molecule, Data Value
measured = [
    ("Cc1cn(-c2ccc3c(N)ncc(/C(N)=N/O)c3c2)c2c1C(=O)CC(C)(C)C2 [Compound 105]", "+++"),
    ("CC(C)Cc1nn(-c2ccc3c(N)ncnc3c2)c2c1C(=O)CC(C)(C)C2 [Compound 87]", "+++"),
    ("Cc1cn(-c2ccc3c(N)ncc(C(=O)O)c3c2)c2c1C(=O)CC(C)(C)C2 [Compound 106]", "++"),
    ("Cc1cn(-c2ccc3c(N)ncnc3c2SCCNC(=O)OC(C)(C)C)c2c1C(=O)CC(C)(C)C2 [Compound 77]", "++"),
    ("COCCNc1c(-n2cc(C)c3c2CC(C)(C)CC3=O)ccc2c(N)ncnc12 [Compound 56]", "+++"),
    ("Cc1cn(-c2ccc3c(N)ncnc3c2)c2c1C(=O)CCC2 [Compound 45]", "++"),
    ("Cc1nn(-c2ccc3c(N)ncc(C(N)=O)c3c2)c2c1C(=O)CC(C)(C)C2 [Compound 99]", "++"),
]

// switching to the query molecule
Affinity reported for this molecule CCCCSc1c(-n2cc(C)c3c2CC(C)CC3=O)ccc2c(N)ncnc12 (centres unmarked) [Compound 72] : ++
